System: Staphylococcus aureus MRSA No. 17 (methicillin-resistant Staphylococcus aureus: MRSA)
Experiment: MIC for Staphylococcus aureus MRSA No. 17
Type: cell-based
Details: MRSA No. 17, regular bouillon medium, 37° C. overnight, turbidity, read-out: MIC Straphyrococcus aureus MRSA No. 17 (MRSA)
The entries below are paired with their reported MIC.

{"columns": ["compound", "test_target", "MIC, µg/mL"],
 "data": [
  ["CCCCCCCCCCOCC(O)=C1C(=O)N(C(=O)Nc2ccc(Br)cc2)c2ccccc21", "Staphylococcus aureus MRSA No. 17 (methicillin-resistant Staphylococcus aureus: MRSA)", 64],
  ["CCCCCCCCOCC(O)=C1C(=O)N(C(C)=O)c2ccccc21", "Staphylococcus aureus MRSA No. 17 (methicillin-resistant Staphylococcus aureus: MRSA)", 16],
  ["CCCCC1CCC(C(O)=C2C(=O)N(C(C)=O)c3ccccc32)CC1 (centres unmarked)", "Staphylococcus aureus MRSA No. 17 (methicillin-resistant Staphylococcus aureus: MRSA)", 1],
  ["CCCCCCCCCC(=O)NCC(O)=C1C(=O)N(C(=O)OC(C)(C)C)c2ccccc21", "Staphylococcus aureus MRSA No. 17 (methicillin-resistant Staphylococcus aureus: MRSA)", 256],
  ["CCCCCCCCCCOCC(O)=C1C(=O)N(C(=O)OC(C)(C)C)c2ccc(F)cc21", "Staphylococcus aureus MRSA No. 17 (methicillin-resistant Staphylococcus aureus: MRSA)", 128],
  ["CCCCCCCCCCOC(C)C(O)=C1C(=O)N(C(=O)NCCCC)c2ccccc21 (centres unmarked)", "Staphylococcus aureus MRSA No. 17 (methicillin-resistant Staphylococcus aureus: MRSA)", 256],
  ["CCCCCCCCCCOCC(O)=C1C(=O)N(C(C)=O)c2ccc(F)cc21", "Staphylococcus aureus MRSA No. 17 (methicillin-resistant Staphylococcus aureus: MRSA)", 64],
  ["CCCCCCCCCC(=O)N1C(=O)C(=C(C)O)c2ccccc21", "Staphylococcus aureus MRSA No. 17 (methicillin-resistant Staphylococcus aureus: MRSA)", 4]
]}

---

Test system: Staphylococcus aureus MRSA No. 17 (methicillin-resistant Staphylococcus aureus: MRSA)
Assay: MIC for Staphylococcus aureus MRSA No. 17
Type: cell-based
Conditions: MRSA No. 17, regular bouillon medium, 37° C. overnight, turbidity, read-out: MIC Straphyrococcus aureus MRSA No. 17 (MRSA)
The entries below are paired with their reported MIC.
experimental_readout: MIC (mg/L)

{"columns": ["compound", "reported_value"],
 "data": [
  ["CCCCCCCCNC(=O)c1c(O)c2ccccc2oc1=O [B020, 3-(octylaminocarbonyl)-4-hydroxycoumarin]", 16],
  ["CCCCC1CCC(C(O)=C2C(=O)N(C(=O)Nc3ccc(F)cc3)c3ccccc32)CC1 (centres unmarked) [A043]", 128],
  ["CCCCCCCCCCOCC(O)=C1C(=O)N(C(=O)Nc2ccc(F)cc2)c2ccccc21 [A041]", 256],
  ["CC(=O)N1C(=O)C(=C(O)CCCCCCCCCBr)c2ccccc21 [A024]", 16],
  ["CCCCCCCCCC(O)=C1C(=O)N(C(=O)OC(C)(C)C)c2cc(Cl)ccc21 [A003, N-Boc-3-decanoyl-6-chloro-2-oxyindole]", 256]
]}

---

Test system: Staphylococcus aureus MRSA No. 17 (methicillin-resistant Staphylococcus aureus: MRSA)
Experiment: MIC for Staphylococcus aureus MRSA No. 17
Format: cell-based
Conditions: MRSA No. 17, regular bouillon medium, 37° C. overnight, turbidity, read-out: MIC Straphyrococcus aureus MRSA No. 17 (MRSA)

{"columns": ["compound", "MIC / µg/mL"],
 "data": [
  ["CCCCCCCCCC(=O)N[C@@H](C)C(=O)c1c(O)c2ccccc2oc1=O", 256],
  ["CCCCCCCCCCOC(C)C(O)=C1C(=O)N(C(C)=O)c2ccccc21 (stereo not drawn)", 8],
  ["CCCCCCCCCC(=O)N1C(=O)/C(=C(\\O)COC)c2ccccc21", 256],
  ["CCCCCCCCCCOCC(=O)c1c(O)c2cc(F)ccc2oc1=O", 256],
  ["CCCCCCCCCCSCC(O)=C1C(=O)N(C(C)=O)c2ccc(Br)cc21", 2],
  ["CCCCCCCCOCC(O)=C1C(=O)N(C(=O)Nc2ccccc2)c2ccccc21", 128],
  ["CCCCC1CCC(C(O)=C2C(=O)N(C(=O)Nc3ccc(Br)cc3)c3ccccc32)CC1 (stereo not drawn)", 128],
  ["CCCCCCCCCC(=O)N1C(=O)C(=C(O)CCCCCCCCC)c2ccccc21", 32],
  ["CCCCCCCCCCCCNC(=O)c1c(O)c2ccccc2oc1=O", 8]
]}

---

The entries below are paired with their reported MIC.
Test system: Escherichia coli K-12 strain
Test: MIC for Escherichia coli K-12 strain
Format: cell-based
Conditions: Escherichia coli, K12STRAIN; K-12 strain; regular bouillon medium, 37° C. overnight, turbidity; read-out: MIC Escherichia coli K12
experimental_readout: MIC

{"columns": ["compound", "experimental_readout", "reported_value"],
 "data": [
  ["CCCCCCCCCC(O)=C1C(=O)N(C(=O)Nc2ccccc2)c2ccc(F)cc21 [A044]", "MIC", "256 µg/mL"],
  ["CCCCCCCCCCOCC(O)=C1C(=O)N(C(=O)Nc2ccc(OC)cc2)c2ccc(F)cc21 [A047]", "MIC", "128 µg/mL"],
  ["CCCCCCCCCCOC(C)C(O)=C1C(=O)N(C(=O)NCCCC)c2ccccc21 (centres unmarked) [A020]", "MIC", "256 µg/mL"],
  ["CCCCCCCCCC(=O)N1C(=O)C(=C(O)CCCCCCCCC)c2ccccc21 [A005, 1,3-didecanoyl-2-oxyindole]", "MIC", "128 µg/mL"],
  ["CCCCCCCCOCC(=O)c1c(O)c2ccccc2oc1=O [B030, 3-octyloxyacetyl-4-hydroxycoumarin]", "MIC", "128 µg/mL"],
  ["CCCCCCCCCC(=O)N1C(=O)C(=C(O)c2ccc(OC)cc2)c2ccccc21 [A062]", "MIC", "256 µg/mL"],
  ["CCCCCCCCCC(=O)N1C(=O)/C(=C(\\O)COC)c2ccccc21 [A049, N-decanoyl-3-methoxyacetyl-2-oxyindole]", "MIC", "256 µg/mL"],
  ["CCCCCCCCCCOC(C)C(=O)c1c(O)c2ccccc2oc1=O (centres unmarked) [B017]", "MIC", "256 µg/mL"]
]}

---

The entries below are paired with their reported MIC.
Test system: Staphylococcus aureus Smith strain
Assay: MIC for Staphylococcus aureus Smith strain
Assay type: cell-based
Conditions: Smith strain, regular bouillon medium, 37° C. overnight, turbidity, read-out: MIC Straphyrococcus aureus Smith

{"columns": ["compound", "MIC (µg/mL)"],
 "data": [
  ["CCCCCCCCCCOC(C)C(O)=C1C(=O)N(C(C)=O)c2ccccc21 (stereo not drawn) [A018]", 0.5],
  ["O=C(NCC(=O)c1c(O)c2ccccc2oc1=O)c1ccccc1 [B013, 3-benzoylaminoacetyl-4-hydroxycoumarin]", 256],
  ["CCCCCCCCCC(O)=C1C(=O)N(C(=O)Nc2ccc(F)cc2)c2ccccc21 [A042]", 0.5],
  ["CCCCCCCCCCOCC(O)=C1C(=O)N(C(=O)Nc2ccc(OC)cc2)c2ccc(F)cc21 [A047]", 8],
  ["CCCCCCCCCC(=O)N1C(=O)/C(=C(\\O)COC)c2cc(F)ccc21 [A050]", 0.5],
  ["CCCCCCCCCC(=O)NCC(=O)c1c(O)c2ccccc2oc1=O [B016, 3-decanoylaminoacetyl-4-hydroxycoumarin]", 256],
  ["CCCCCCCCCC(O)=C1C(=O)N(C)c2ccccc21 [A007, N-methyl-3-decanoyl-2-oxyindole]", 8],
  ["CCCCCCCCCCOCC(=O)c1c(O)c2cc(Cl)ccc2oc1=O [B028]", 8],
  ["CCCCC1CCC(C(O)=C2C(=O)N(C(C)=O)c3ccccc32)CC1 (stereo not drawn) [A010]", 0.5]
]}

---

System: Staphylococcus aureus 209P strain
Experiment: MIC for Staphylococcus aureus 209P strain
Format: cell-based
Settings: Staphylococcus aureus, 209P, read-out: MIC Straphyrococcus aureus 209P
The entries below are paired with their reported MIC.

{"columns": ["molecule", "MIC [µg/mL]"],
 "data": [
  ["CCCCCCCCNC(=O)N1C(=O)C(=C(O)c2ccccc2)c2ccccc21", 0.25],
  ["CC(=O)N1C(=O)C(=C(O)CCCCCCCCCBr)c2ccccc21", 16],
  ["CCCCCCCCC(O)=C1C(=O)N(C(=O)Nc2ccccc2)c2ccc(F)cc21", 64],
  ["CCCCCCCCCCOCC(=O)c1c(O)c2ccccc2oc1=O [B015, 3-decyloxyacetyl-4-hydroxycoumarin]", 8],
  ["CCCCCCCCCC(O)=C1C(=O)N(C)c2ccccc21", 32],
  ["CCCCCCCCCC(O)=C1C(=O)Nc2cc(Cl)ccc21", 16],
  ["CCCCCCCCCC(O)=C1C(=O)Nc2ccc(F)cc21", 16],
  ["CCCCCCCCCC(=O)N1C(=O)C(=C(O)c2ccc(F)cc2)c2ccccc21", 128],
  ["CCCCCCCCCC(=O)N1C(=O)/C(=C(/C)O)c2cc(F)ccc21", 4],
  ["CCCCCOCC(=O)c1c(O)c2ccccc2oc1=O [B021, 4-hydroxy-3-(pentyloxyacetyl)coumarin]", 32],
  ["CCCCCCCCCCOC(C)C(O)=C1C(=O)N(C(C)=O)c2ccccc21 (centres unmarked)", 64]
]}
